inhibition: recorded values
- run.description: antagonists of CRF-BP/CRF-R2 complex, primary screen, cell-based, HEK293, calcium dye fluorescence, uHTS (AID 588475)
- stated.conditions: CRF-induced calcium fluorescence, at 11.8 µM, active compounds read high
The whole screen tested about 350,000 compounds, of which about 2,100 (0.6%) were called active. The sample as a whole holds a higher share of actives than the screen did.
The reply should contain only the number, in %.

compound	unit.of.measure	inhibition
O=C(COc1ccc(Cl)cc1)NCCSc1ccccc1	%	9.25
O=C(NNC(=S)NCCCN1CCOCC1)c1ccncc1	%	1.88
Cc1ccc(C)c(C(=O)COC(=O)Cn2[nH]c(=O)c3ccccc3c2=O)c1	%	6.49
CS(=O)(=O)N(Cc1nc2sc3c(c2c(=O)[nH]1)CCCC3)C1CCCCC1	%	-0.95
CCn1cc(/C=C2/SC(=S)NC2=O)c(C)n1	%	13.4

Data request, read-out inhibition, for CCOC(=O)c1cc2occc2n1CC(=O)NC1CCC(C)CC1 (stereo unspecified) 4.37

Data request, read-out inhibition, for "CCOc1cc(/C=N/NC(=O)OC)ccc1OCCSc1ccc(Cl)cc1" -13.1

Data request, read-out inhibition, for "CCOc1ccc(N(CC(=O)Nc2ccccc2F)S(=O)(=O)c2c(C)[nH]c(=O)[nH]c2=O)cc1" -6.15

Data request, read-out inhibition, for Cc1ccc(SC(CC(=O)c2ccc(C(C)(C)C)cc2)C(=O)O)cc1 (stereo unspecified) -15.1

Data request, read-out inhibition, for "CCOc1cc(/C=C(/C#N)c2ccc(Cl)cc2)cc(Cl)c1OCC(=O)O" 57.4

Data request, read-out inhibition, for "COc1ccc(S(=O)(=O)N2CCN(C(=O)c3cccs3)CC2)cc1OC" 22.7

====

- run.description: antagonists of CRF-BP/CRF-R2 complex, primary screen, cell-based, HEK293, calcium dye fluorescence, uHTS (AID 588475)
- stated.conditions: CRF-induced calcium fluorescence, at 11.8 µM, active compounds read high
In all, about 350,000 compounds went through this assay and about 2,100 (0.6%) were called active. This is one part of a sample in which actives are shown more often than they occur.
inhibition: recorded values
The reply should contain only the number, in %.

smiles.entry	unit.of.measure	inhibition
CCOC(=O)N1CCN(S(=O)(=O)c2cc3c(cc2C)NC(=O)CO3)CC1	%	-1.54

Data request, read-out inhibition, for "Cc1nn(C)c(Oc2ccccc2)c1CCNS(=O)(=O)c1ccc(F)cc1" -3.36

Data request, read-out inhibition, for "CC(C)(C)c1ccc(/C=C2\SC(=O)N=C2N)cc1" 9.93

Data request, read-out inhibition, for "O=C(NCc1ccncc1)c1cccc(NS(=O)(=O)c2ccc(F)c(F)c2)c1" -1.96

Data request, read-out inhibition, for "NC1=NC(=O)S/C1=C\c1ccc(O)cc1" 51

Data request, read-out inhibition, for "O=C(Nc1cc(-c2ccccc2)nn1-c1ccccc1F)c1ccc([N+](=O)[O-])cc1" -5.97

====

- run.description: antagonists of CRF-BP/CRF-R2 complex, primary screen, cell-based, HEK293, calcium dye fluorescence, uHTS (AID 588475)
- stated.conditions: CRF-induced calcium fluorescence, at 11.8 µM, active compounds read high
Out of some 350,000 compounds screened, about 2,100 (0.6%) were called active. For the sample, actives were picked, then their nearest neighbours and some compounds at random.
outcome.measure: inhibition

smiles.entry	outcome.measure	observed.result
O=S(=O)(CCc1nc2ccccc2o1)c1ccc(Cl)cc1	inhibition	-6.01% (inactive)
Cc1nn2c3ccccc3nc2n(C)c1=O	inhibition	83.2% (active)
O[C@H]1CN(Cc2cccs2)[C@@H](c2ccc(Cl)cc2)C[C@@H]1n1cc(C2CC2)nn1	inhibition	-16.1% (inactive)
CCc1nc2ccccc2n(CCOCCOCCn2c(=O)c(CC)nc3ccccc32)c1=O	inhibition	-9.64% (inactive)
CC1(C)C/C(=N/Nc2ccc([N+](=O)[O-])cc2[N+](=O)[O-])C(C)(C)O1	inhibition	-6.77% (inactive)

Turning now to a further record.
Data request, read-out inhibition, for "Cn1c(-c2ccc(C(=O)c3ccccc3)s2)nc2ccccc21" 6.07% (inactive)

====

inhibition: recorded values
- run.description: antagonists of CRF-BP/CRF-R2 complex, primary screen, cell-based, HEK293, calcium dye fluorescence, uHTS (AID 588475)
- stated.conditions: CRF-induced calcium fluorescence, at 11.8 µM, active compounds read high
Hit rate of the full screen: of about 350,000 compounds, about 2,100 (0.6%) were called active. This excerpt belongs to a sample that is enriched for actives.
The reply should contain only the number, in %.

compound	outcome.measure	unit.of.measure	observed.result
CCc1c(C)nc(N)n2c(SCC(=O)NC3CCCCC3)nnc12	inhibition	%	-4.43
O=C(NC(Nc1nc2ccc([N+](=O)[O-])cc2s1)(C(F)(F)F)C(F)(F)F)c1ccccc1	inhibition	%	56.4
CC1C(=O)Nc2ccccc2N1C(=O)c1ccc(F)cc1F (configuration not stated)	inhibition	%	16
CC(C)C(NS(=O)(=O)c1cccs1)C(=O)Nc1nc(C(C)(C)C)cs1 (configuration not stated)	inhibition	%	7.44

Data request, read-out inhibition, for "Cc1ccccc1-n1c(SCC(=O)Nc2cccc3ccccc23)nc(O)cc1=O" -4.41

Data request, read-out inhibition, for "CN(C)/C(=N\OC(=O)c1ccccc1)c1nonc1N" 28.8

Data request, read-out inhibition, for "C/C(CC(=O)Nc1cccc(C(F)(F)F)c1)=N\NC(=O)C(=O)NCC(C)C" -3.29

Data request, read-out inhibition, for "COc1ccc(NC(=O)C(=O)NCC(=O)Nc2cccc(C(F)(F)F)c2)cc1" 55.4

Data request, read-out inhibition, for "NC(N)=N/N=C/c1ccc(OCc2ccc(Cl)cc2Cl)cc1" -68.7

Data request, read-out inhibition, for [O-][N+]12CCCCC1CCCC2CO (configuration not stated) 8.6

Data request, read-out inhibition, for "C[C@@H]1CN([C@H](C)CO)C(=O)CCCn2nncc2CO[C@@H]1CN(C)C(=O)OCc1ccccc1" -0.52

Data request, read-out inhibition, for "CCOCC(=O)Nc1ncc(S(=O)(=O)c2ccc([N+](=O)[O-])cc2)s1" -6.17

Data request, read-out inhibition, for "N=C1C(c2nc3ccccc3s2)=C(O)CN1NC(=O)c1ccc([N+](=O)[O-])cc1" 18.1

Data request, read-out inhibition, for "CC1CCN(C(=O)/C(=C\c2ccccc2)NC(=O)c2ccccc2)CC1" 8.16

Data request, read-out inhibition, for "O=[N+]([O-])c1ccc(C(S(=O)(=O)Cc2ccccc2)S(=O)(=O)Cc2ccccc2)cc1" 5.72

Data request, read-out inhibition, for "CN(Cc1ccc(CNC[C@H]2O[C@@H](n3cnc4c(N)ncnc43)[C@H](O)[C@@H]2O)o1)S(C)(=O)=O" 15.6

Data request, read-out inhibition, for "Cc1cc(OC(=O)c2ccc(Cl)cc2)cc(=O)n1C" 11.4

Data request, read-out inhibition, for "COCC(=O)N1CCc2ccc(NC(=O)c3ccccc3Cl)cc2C1" 6.03

Data request, read-out inhibition, for "O=C(COc1ccc(NC(=O)c2ccccc2[N+](=O)[O-])cc1)c1ccc(F)cc1" 20.8

Data request, read-out inhibition, for "COc1ccc(C)cc1NC(=O)Nc1ccccc1SC" 23.5

Data request, read-out inhibition, for "CCCOc1ccc(CNC(=O)C2CCN(c3nn4c(=O)cc(C)nc4s3)CC2)cc1" 4.13

Data request, read-out inhibition, for "CSc1nnc(-c2ccc(C(F)(F)F)cn2)o1" 4.97

====

- run.description: antagonists of CRF-BP/CRF-R2 complex, primary screen, cell-based, HEK293, calcium dye fluorescence, uHTS (AID 588475)
- stated.conditions: CRF-induced calcium fluorescence, at 11.8 µM, active compounds read high
In all, about 350,000 compounds went through this assay and about 2,100 (0.6%) were called active. This is one part of a sample in which actives are shown more often than they occur.
outcome.measure: inhibition (%)
The reply should contain only the number, in %.

Solved entries (count: 4):
compound	outcome.measure	observed.result
Cc1cc(NC(=O)CN2C(=O)NC(CC(C)C)C2=O)no1 (configuration not stated)	inhibition	56.2
O=C1/C(=C/c2cccs2)CCc2ccccc21	inhibition	-1.09
CCOc1cccc(=O)c2c(C)n(CC3CCCO3)c(C)c12 (configuration not stated)	inhibition	-12.3
Cc1ccc(C(=O)N/C(=C\c2cn(C)c3ccccc23)C(=O)N2CCN(C)CC2)cc1	inhibition	1.64

Data request, read-out inhibition, for "COc1ccc(SC[C@H](Cc2ccccc2)N2CCN(CCc3ccccc3)CCC2=O)cc1" -0.63

Data request, read-out inhibition, for C=CCSc1nnc(N2C(=O)C(O)=C(C(=O)c3ccco3)C2c2ccc(F)cc2)s1 (configuration not stated) 17.8

Data request, read-out inhibition, for "O=C(COC(=O)c1cncc(Br)c1)Nc1ccc(S(=O)(=O)N2CCOCC2)cc1" 5.84

Data request, read-out inhibition, for O=C(N[C@H]1C/C=C\C(c2ccc(F)cc2)N(Cc2ccccc2)C(=O)C1)OCC1c2ccccc2-c2ccccc21 (some centres not stated) -13.4

Data request, read-out inhibition, for "COc1cccc(OC)c1C(=O)N1CCN(Cc2cccnc2)CC1" 56.1

Data request, read-out inhibition, for O=C(NNC(=S)NC1CC2CCC1C2)c1ccc(Cl)cc1 (configuration not stated) -9.96
